The compounds below each have a reported Ki tested on 5-hydroxytryptamine receptor 6 (Rattus norvegicus, UniProt P31388); the values come from various publications.
# number only, unit nM dropped from output

Q: Request: Ki, test system 5-hydroxytryptamine receptor 6 (Rattus norvegicus, UniProt P31388), entry `CN1CCOc2ccc(NS(=O)(=O)c3cccc(Cl)c3Cl)cc2C1`
A: 31

Q: 5-hydroxytryptamine receptor 6 (Rattus norvegicus, UniProt P31388) / Ki / `COc1ccc(Cl)cc1NS(=O)(=O)c1ccc(OC)c2c1OC[C@H](N(C)C)C2` : value?
A: 2.3

Q: # get_value(readout= Ki, system= 5-hydroxytryptamine receptor 6 (Rattus norvegicus, UniProt P31388)) for `COc1ccc(NS(=O)(=O)c2sc3ccc(F)cc3c2C)c2c1C[C@@H](N(C)C)CC2`
A: 19

Q: # query: Ki | item `CN1CCN(c2cccc3c2C[C@H](NS(=O)(=O)c2ccc4ccccc4c2)CC3)CC1` | system: 5-hydroxytryptamine receptor 6 (Rattus norvegicus, UniProt P31388)
A: 0.8

Q: Please tell me: Ki of `O=S(=O)(Nc1ccc2c(c1)CNCCC2)c1csc(C(F)(F)F)c1-c1ccccc1` , system 5-hydroxytryptamine receptor 6 (Rattus norvegicus, UniProt P31388)?
A: 32

Q: API: value(readout= Ki, system= 5-hydroxytryptamine receptor 6 (Rattus norvegicus, UniProt P31388), query= `COc1ccc(Cl)cc1NS(=O)(=O)c1ccc(OC)c2c1CC[C@H](N(C)C)C2` )
A: 1.7
